Where these numbers come from: ChEMBL document CHEMBL3507680

# TEST_DESCRIPTION: Human HepG2 cell viability assay in 384 well format
# Type: toxicity, cell-based
# Parameters: dose 125 nL, time 70.5 hour; concentration not given beside the values
# EXPERIMENTAL_CONDITIONS: HepG2 cells, read-out: Inhibition
ATTRIBUTE_MEASURED: cytotoxicity at 70.5 h (%)
Numeric answer only, unit % assumed.

| COMPOUND | cytotoxicity at 70.5 h, % |
| --- | --- |
| COC(=O)C(C)(C)NC(=O)c1cnc(Cc2ccc(F)cc2)s1 | -2.02 |
| O=C(NCC(Cc1cccc(F)c1)N1CCCC1=O)c1ccccc1 (stereo unspecified) | 4.11 |
| COCCN1CCN(Cc2c(C)noc2C)Cc2ccc(C)nc21 | -1.53 |
| COc1cccc2c1ccn2CCC(=O)NCCCC(=O)O | -3.23 |
| COCCOCC(=O)N1C[C@@H]2CC[C@H](Oc3cccc(F)c3)[C@@H]2C1 | -3.05 |

Query: What cytotoxicity at 70.5 h value was documented for this compound, O=C(C1CCN(c2cccnn2)C1)N1CCOCC1 (stereo unspecified) ?
Reply: 1.06

Query: Let us now turn to O=C(Cc1ccc2c(c1)CCO2)N1CCCC(n2cccn2)C1 (stereo unspecified)
Reply: -12.1

Query: Let us now turn to Cn1ccnc1C1CCN(CCN2CCOCC2)CC1
Reply: -8.74

Query: Let us now turn to O=C1NC2(CCN(Cc3ccsc3)CC2)CC1c1ccncc1 (stereo unspecified)
Reply: -9.73

Query: Let us now turn to CCC1=N[C@@]2(CC[C@@H]3CN(S(=O)(=O)N(C)C)C[C@@H]32)C(=O)N1CC(C)C
Reply: -3.81

Query: Let us now turn to COCCn1cc(NCc2c[nH]nc2-c2ccc(OC)cc2)cn1
Reply: -5.02
